# Test system: Triticum aestivum
# Assay Remarks: Stimulation of root length of Triticum aestivum cv. Cortex (wheat) at 0.1 mM or 1 mM after 5 days relative to untreated control
# Format: functional
Calls of active or inactive are those of the source. The calls are words filed in the database; no cut-off is given here.
Observed Property: Activity

Consider the following illustrative entries.
C=C1C(=O)O[C@H]2[C@H]1CCC(=C)[C@]1(O)C[C@@H](O)C(=C)[C@]21O ... <20%
CC(=O)O[C@H]1CC(C)=C2C(=O)C=C(C)[C@@H]2[C@H]2OC(=O)[C@H](C)[C@H]21 ... inactive
C=C1CC[C@H]2C(=C)CC[C@H]3C(=C)C(=O)O[C@@H]3[C@@H]12 [DEHYDROCOSTUSLACTONE] ... >40%
CC1=CC(=O)C2=C(C)C[C@H](O)[C@H]3[C@H](OC(=O)[C@@H]3C)[C@@H]12 [8ALPHA-HYDROXYACHILLIN] ... inactive
C=C1CC[C@H]2[C@H](C)C(=O)O[C@@H]2[C@@]2(O)C(=C)[C@H](O)C[C@@H]12 ... inactive
C=C1CC[C@H]2[C@H](C)C(=O)O[C@@H]2[C@@]2(O)C(=C)[C@H](O)C[C@@]12O ... inactive
C=C1[C@@H]2[C@H]3OC(=O)[C@@H](CO)[C@@H]3CCC(=C)[C@@H]2C[C@H]1O ... inactive
COc1nc(C)nc(NC(=O)NS(=O)(=O)c2ccccc2OCCCl)n1 ... 20%
C=C1[C@@H]2[C@H]3OC(=O)C(=C)[C@@H]3CCC(=C)[C@@H]2C[C@@H]1O ... 20%
C=C1[C@@H]2[C@H]3OC(=O)C(=C)[C@@H]3CCC(=C)[C@@H]2C[C@H]1O ... >40%

Now let's try a different one.
Bench note: what Activity did C=C1C(=O)O[C@H]2[C@H]1C[C@@H](O)C(=C)[C@@H]1C[C@@H](O)C(=C)[C@@]12O show?
20%

---

# Tested on: Lactuca sativa
# Assay Remarks: Inhibition of hypocotyl length of Lactuca sativa cv. Roman (lettuce) at 0.1 mM or 1 mM after 5 days relative to untreated control
# Type: functional
Catalogue of molecules with associated inhibition (INH)

Consider the following illustrative entries.
C=C1[C@@H]2[C@H]3OC(=O)[C@@H](CO)[C@@H]3CCC(=C)[C@@H]2C[C@H]1O ... >40%
C=C1CC[C@H]2C(=C)CC[C@@H](C(=C)CO)[C@H](O)[C@@H]12 ... <20%
C=C1C(=O)C[C@H]2C(=C)CC[C@H]3C(=C)C(=O)O[C@@H]3[C@@H]12 [DEHYDROZALUZANIN C] ... >40%
C=C1CC[C@H]2[C@H](C)C(=O)O[C@@H]2[C@@]2(O)C(=C)[C@H](O)C[C@@H]12 ... 20%
C=C1C(=O)O[C@H]2[C@H]1C[C@@H](O)C(=C)[C@@H]1C[C@@H](O)C(=C)[C@@]12O ... <20%
CC(=O)O[C@H]1CC(C)=C2C(=O)C=C(C)[C@@H]2[C@H]2OC(=O)[C@H](C)[C@H]21 [8ALPHA-ACETOXYACHILLIN] ... <20%

Bench note: what inhibition (INH) did C=C1C(=O)O[C@H]2[C@H]1CCC(=C)[C@@H]1C[C@@H](O)C(=C)[C@@]12O [5ALPHA-HYDROXYISOZALUZANIN C] show?
20%

Bench note: what inhibition (INH) did C=C1CC[C@H]2C(=C)CC[C@H]3C(=C)C(=O)O[C@@H]3[C@@H]12 [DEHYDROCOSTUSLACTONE] show?
<20%
